IC50: recorded values
MEASURED ON: Histone deacetylase 8 (Homo sapiens)
Sequence (Q9BY41 whole entry): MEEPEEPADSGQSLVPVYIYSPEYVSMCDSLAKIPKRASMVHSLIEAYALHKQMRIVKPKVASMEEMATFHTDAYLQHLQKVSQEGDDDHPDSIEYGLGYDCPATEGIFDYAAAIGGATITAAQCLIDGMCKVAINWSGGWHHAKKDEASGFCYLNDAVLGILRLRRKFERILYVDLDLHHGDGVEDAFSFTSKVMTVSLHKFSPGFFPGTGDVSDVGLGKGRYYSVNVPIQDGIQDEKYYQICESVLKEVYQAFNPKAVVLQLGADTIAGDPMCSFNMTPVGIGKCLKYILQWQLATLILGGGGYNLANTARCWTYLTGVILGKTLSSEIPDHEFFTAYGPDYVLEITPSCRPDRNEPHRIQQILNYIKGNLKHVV
Square brackets hold non-standard residues; d marks the D form. Peptide text beside a SMILES is read from it. * marks the point of attachment. Phe(F5) = N[C@@H](Cc1c(F)c(F)c(F)c(F)c1F)C(=O)O; 1Nal = N[C@@H](Cc1cccc2ccccc12)C(=O)O; β3hY = N[C@H](CC(=O)O)Cc1ccc(O)cc1; Asu = N[C@@H](CCCCCC(=O)O)C(=O)O; β3hL = CC(C)C[C@H](N)CC(=O)O; Carboxymethyl = O=C(O)C*; CH2CH2COOH = O=C(O)CC*; Aib = CC(C)(N)C(=O)O; X1 = CCC(=O)CC*
READOUT: IC50 (µM)

COMPOUND	QUALIFIER SYMBOL	VALUE
O=C(O)CCCCC[C@@H]1NC(=O)[C@H](Cc2c(F)c(F)c(F)c(F)c2F)NC(=O)C[C@H](Cc2ccc(O)cc2)NC(=O)[C@H](Cc2cccc3ccccc23)NC1=O (cyclo([1Nal][β3hY][Phe(F5)][Asu]))	=	6.7
CCC(=O)CCSC[C@@H]1NC(=O)[C@H](C)NC(=O)C[C@H](CC(C)C)NC(=O)[C@H](Cc2c[nH]c3ccccc23)NC1=O (cyclo(AC(X1)W[β3hL]))	>	10
CC(C)C[C@H]1CC(=O)N[C@@H](C)C(=O)N[C@@H](CSCC(=O)O)C(=O)N[C@@H](Cc2c[nH]c3ccccc23)C(=O)N1 (cyclo(C(Carboxymethyl)W[β3hL]A))	=	9.7
CC(C)C[C@H]1CC(=O)N[C@@H](C)C(=O)N[C@@H](CSCCC(=O)O)C(=O)N[C@@H](Cc2c[nH]c3ccccc23)C(=O)N1 (cyclo(C(CH2CH2COOH)W[β3hL]A))	=	6.05
CC(C)C[C@H]1CC(=O)NC(C)(C)C(=O)N[C@@H](CCCCCC(=O)O)C(=O)N[C@@H](Cc2cccc3ccccc23)C(=O)N1 (cyclo([1Nal][β3hL][Aib][Asu]))	=	0.87
CCC(=O)CCCCC[C@@H]1NC(=O)C[C@H](CC(C)C)NC(=O)[C@H](Cc2c[nH]c3ccccc23)NC(=O)[C@H](CCCCCC(=O)CC)NC1=O	=	1.4

====

MEASURED ON: Histone deacetylase
Type: cell-based, Homo sapiens
PARTICULARS: hela
Description: Inhibition of HDAC in human HeLa cell cytosolic extract after 30 mins by fluorimetric assay
Square brackets hold non-standard residues; d marks the D form. Peptide text beside a SMILES is read from it. β3hW = N[C@H](CC(=O)O)Cc1c[nH]c2ccccc12; 1Nal = N[C@@H](Cc1cccc2ccccc12)C(=O)O; Asu = N[C@@H](CCCCCC(=O)O)C(=O)O; β3hL = CC(C)C[C@H](N)CC(=O)O
IC50: recorded values
READOUT: IC50 (nM)

COMPOUND	VALUE
O=C(O)CCCCC[C@@H]1NC(=O)[C@H]2CCCCN2C(=O)C[C@H](Cc2ccccc2)NC(=O)[C@H](Cc2c[nH]c3ccccc23)NC1=O	791
O=C(O)CCCCC[C@@H]1NC(=O)[C@H](Cc2ccccc2)NC(=O)C[C@H](Cc2c[nH]c3ccccc23)NC(=O)[C@H](Cc2cccc3ccccc23)NC1=O (cyclo([1Nal][β3hW]F[Asu]))	1009
CC(C)C[C@H]1CC(=O)N[C@@H](C)C(=O)N[C@@H](CCCCCC(=O)O)C(=O)N[C@@H](Cc2cccc3ccccc23)C(=O)N1 (cyclo([Asu][1Nal][β3hL]A))	377
CC(C)C[C@H]1CC(=O)N[C@@H](Cc2ccccc2)C(=O)N[C@@H](CCCCCC(=O)O)C(=O)N[C@@H](Cc2cccc3ccccc23)C(=O)N1 (cyclo([1Nal][β3hL]F[Asu]))	742
CC(C)C[C@H]1CC(=O)N[C@@H](C)C(=O)N[C@@H](CCCCCC(=O)O)C(=O)N[C@@H](Cc2ccccc2)C(=O)N1 (cyclo(A[Asu]F[β3hL]))	541

====

MEASURED ON: Histone deacetylase 1 (Homo sapiens)
Sequence (Q13547 whole entry): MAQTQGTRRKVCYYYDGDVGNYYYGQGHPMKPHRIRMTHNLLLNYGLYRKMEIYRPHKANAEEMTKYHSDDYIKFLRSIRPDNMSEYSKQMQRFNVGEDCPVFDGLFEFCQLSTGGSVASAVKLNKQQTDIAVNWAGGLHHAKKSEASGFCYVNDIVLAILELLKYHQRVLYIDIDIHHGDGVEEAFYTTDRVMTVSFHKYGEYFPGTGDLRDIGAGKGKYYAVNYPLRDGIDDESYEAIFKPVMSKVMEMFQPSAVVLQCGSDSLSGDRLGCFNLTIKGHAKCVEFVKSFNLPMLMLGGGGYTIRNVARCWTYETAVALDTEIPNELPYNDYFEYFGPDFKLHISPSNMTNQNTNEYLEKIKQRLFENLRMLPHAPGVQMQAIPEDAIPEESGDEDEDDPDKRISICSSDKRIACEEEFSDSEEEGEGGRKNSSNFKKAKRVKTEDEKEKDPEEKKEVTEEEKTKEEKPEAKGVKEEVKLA
pIC50: −log10 of the molar value. Square brackets hold non-standard residues; d marks the D form. Peptide text beside a SMILES is read from it. * marks the point of attachment. β3hW = N[C@H](CC(=O)O)Cc1c[nH]c2ccccc12; 1Nal = N[C@@H](Cc1cccc2ccccc12)C(=O)O; Asu = N[C@@H](CCCCCC(=O)O)C(=O)O; β3hL = CC(C)C[C@H](N)CC(=O)O; CH2CH2COOH = O=C(O)CC*; X1 = CCC(=O)CC*
pIC50: recorded values
READOUT: pIC50

MOLECULE	MEASURED ON	READOUT	QUALIFIER SYMBOL	VALUE
CC(C)C[C@H]1CC(=O)N[C@@H](CCCNC(=N)N)C(=O)N[C@@H](CCCCCC(=O)O)C(=O)N[C@@H](Cc2cccc3ccccc23)C(=O)N1 (cyclo([Asu][1Nal][β3hL]R))	Histone deacetylase 1 (Homo sapiens)	pIC50	=	6.75
O=C(O)CCCCC[C@@H]1NC(=O)[C@H](Cc2ccccc2)NC(=O)C[C@H](Cc2c[nH]c3ccccc23)NC(=O)[C@H](Cc2cccc3ccccc23)NC1=O (cyclo([1Nal][β3hW]F[Asu]))	Histone deacetylase 1 (Homo sapiens)	pIC50	=	6.34
CC(C)C[C@H]1CC(=O)N[C@@H](C)C(=O)N[C@@H](CSCCC(=O)O)C(=O)N[C@@H](Cc2c[nH]c3ccccc23)C(=O)N1 (cyclo(C(CH2CH2COOH)W[β3hL]A))	Histone deacetylase 1 (Homo sapiens)	pIC50	=	5.32
CCC(=O)CCSC[C@@H]1NC(=O)[C@H](C)NC(=O)C[C@H](CC(C)C)NC(=O)[C@H](Cc2c[nH]c3ccccc23)NC1=O (cyclo(AC(X1)W[β3hL]))	Histone deacetylase 1 (Homo sapiens)	pIC50	<	5.00
CC(C)C[C@H]1CC(=O)N[C@@H](Cc2ccccc2)C(=O)N[C@@H](CCCCCC(=O)O)C(=O)N[C@@H](Cc2cccc3ccccc23)C(=O)N1 (cyclo([1Nal][β3hL]F[Asu]))	Histone deacetylase 1 (Homo sapiens)	pIC50	=	7.17

====

Test system: HeLa
Square brackets hold non-standard residues; d marks the D form. Peptide text beside a SMILES is read from it. * marks the point of attachment. 1Nal = N[C@@H](Cc1cccc2ccccc12)C(=O)O; β3hY = N[C@H](CC(=O)O)Cc1ccc(O)cc1; Asu = N[C@@H](CCCCCC(=O)O)C(=O)O; β3hL = CC(C)C[C@H](N)CC(=O)O; hLys = NCCCCC[C@H](N)C(=O)O; NHOH = ON*

MOLECULE	MEASURED ON	QUALIFIER SYMBOL	GI50 / µM
CCC(=O)CCCCC[C@@H]1NC(=O)[C@H](CCCCNC(C)=O)NC(=O)C[C@H](CC(C)C)NC(=O)[C@H](Cc2c[nH]c3ccccc23)NC1=O	HeLa	>	20
N=C(N)NCCC[C@@H]1NC(=O)C[C@H](Cc2ccc(O)cc2)NC(=O)[C@H](CC(=O)O)NC(=O)[C@H](CCCCCC(=O)NO)NC1=O (cyclo([Asu](NHOH)D[β3hY]R))	HeLa	=	9
CC(=O)NCCCCC[C@@H]1NC(=O)C[C@H](CC(C)C)NC(=O)[C@H](Cc2cccc3ccccc23)NC(=O)[C@H](CCCCCC(=O)O)NC1=O (cyclo([1Nal][β3hL][hLys](Ac)[Asu]))	HeLa	=	18
CC(C)C[C@H]1CC(=O)N[C@@H](Cc2ccccc2)C(=O)N[C@@H](CCCCCC(=O)O)C(=O)N[C@@H](Cc2cccc3ccccc23)C(=O)N1 (cyclo([1Nal][β3hL]F[Asu]))	HeLa	>	20

====

pIC50: −log10 of the molar value. Square brackets hold non-standard residues; d marks the D form. Peptide text beside a SMILES is read from it. * marks the point of attachment. 1Nal = N[C@@H](Cc1cccc2ccccc12)C(=O)O; Asu = N[C@@H](CCCCCC(=O)O)C(=O)O; β3hL = CC(C)C[C@H](N)CC(=O)O; hLys = NCCCCC[C@H](N)C(=O)O; CH2CH2COOH = O=C(O)CC*
Endpoint: pIC50. System: Histone deacetylase 3 (Homo sapiens). Items follow.
Sequence (O15379 whole entry): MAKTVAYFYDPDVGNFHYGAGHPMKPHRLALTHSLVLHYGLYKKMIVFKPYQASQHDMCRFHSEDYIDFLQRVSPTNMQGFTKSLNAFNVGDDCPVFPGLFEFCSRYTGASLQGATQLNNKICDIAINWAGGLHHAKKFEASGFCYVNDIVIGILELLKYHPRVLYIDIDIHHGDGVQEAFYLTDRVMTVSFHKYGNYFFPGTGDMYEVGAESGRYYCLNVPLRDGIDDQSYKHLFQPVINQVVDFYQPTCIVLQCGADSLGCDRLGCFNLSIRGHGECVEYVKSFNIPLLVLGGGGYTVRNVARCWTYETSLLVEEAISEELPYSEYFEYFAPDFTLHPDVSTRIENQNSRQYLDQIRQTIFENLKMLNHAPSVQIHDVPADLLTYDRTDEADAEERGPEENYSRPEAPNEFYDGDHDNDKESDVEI

COMPOUND	QUALIFIER SYMBOL	pIC50
CC(=O)NCCCCC[C@@H]1NC(=O)C[C@H](CC(C)C)NC(=O)[C@H](Cc2cccc3ccccc23)NC(=O)[C@H](CCCCCC(=O)O)NC1=O (cyclo([1Nal][β3hL][hLys](Ac)[Asu]))	=	7.49
CC(C)C[C@H]1CC(=O)N[C@@H](CCCNC(=N)N)C(=O)N[C@@H](CCCCCC(=O)O)C(=O)N[C@@H](Cc2cccc3ccccc23)C(=O)N1 (cyclo([Asu][1Nal][β3hL]R))	=	6.58
CC(=O)NCCCC[C@@H]1NC(=O)C[C@H](CC(C)C)NC(=O)[C@H](Cc2c[nH]c3ccccc23)NC(=O)[C@H](CSCCC(=O)O)NC1=O (cyclo(C(CH2CH2COOH)W[β3hL]K(Ac)))	<	5.00
